- Tested on: MAP4K2;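 further: KINOMEscan kinase panel screen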
- MEASUREMENT SETUP: concentration: 1 μM, replicates: in singlicate; n = 1
In this section, each of the molecules is paired with its reported %Inh.

{"columns": ["MOLECULE", "%Inh"],
 "data": [
  ["Cc1cccc(-c2nc(Nc3ccc4ncsc4c3)c3ccccc3n2)n1 [GW867588]", "0%"],
  ["O=C(Nc1cccc(-c2nn3ncccc3c2-c2ccnc(Nc3cccc(C(F)(F)F)c3)n2)c1)c1c(F)cccc1F [GSK299495]", "0%"],
  ["CN1c2ccc(NCc3ccc(F)cc3)cc2-c2c(cnn2C)S1(=O)=O", "0%"],
  ["Cc1nnc(-c2ccc3occ(-c4ccc(C(C)O)cc4)c3c2)o1 (stereo not drawn)", "20%"],
  ["Nc1nccc(-c2c(-c3ccc(F)cc3)ncn2C2CCN(CC(F)(F)F)CC2)n1 [SB-236560]", "0%"],
  ["CCc1ccnc(/C=C/c2n[nH]c3cc(Sc4ccccc4C(=O)NC)ccc23)c1", "9%"],
  ["[2H]C([2H])(c1cccc(C(F)(F)F)c1C)n1ccn2c(=O)nc(N3CCOCC3)cc12 [GSK2336394]", "0%"],
  ["Cc1nnc(-c2ccc(C)c(-c3ccc(C(=O)Nc4ccc(NS(C)(=O)=O)cc4)cc3)c2)o1 [GW702865]", "0%"],
  ["CC(C)(C)n1cnc2c(N)ncnc21 [SKF-97359]", "0%"],
  ["Cn1ccc2ncnc(Oc3ccc(NC(=O)Nc4ccncc4)c(Cl)c3)c21", "0%"],
  ["NCC(NC(=O)c1cc(-c2cn[nH]c2)c(-c2ccnc3[nH]ccc23)s1)c1ccccc1.O=C(O)C(F)(F)F.O=C(O)C(F)(F)F (stereo not drawn) [GSK1325775]", "84%"],
  ["CCCCCc1nc2c(N)ncnc2n1CCCCC [SKF-97255]", "0%"],
  ["O=c1cc(N2CCOCC2)nc2n(Cc3cccc(C(F)(F)F)c3)ccn12 [GSK2297543]", "0%"],
  ["COCCNC(=O)c1ccc(-c2cc(C(=O)NC3CC3)cc(F)c2C)cc1 [GW868318]", "20%"],
  ["N#Cc1c(N2CCOCC2)sc(-c2ccn[nH]2)c1-c1ccc(Cl)cc1", "0%"],
  ["O=C(NCCNc1ccnc(Nc2ccc(F)cc2)n1)Nc1ccccc1F [GSK1379880]", "0%"],
  ["O=C(NCCCN1CCOCC1)c1cccc(Nc2nccc(Nc3ccc(Oc4ccccc4)cc3)n2)c1 [GW663929]", "13%"],
  ["c1ccc(-c2cc(-c3c[nH]nc3-c3ccccn3)ccn2)cc1 [GW576604]", "0%"]
]}

Sourced from paper PMC5540273
